- Tested on: Acinetobacter baumannii ATCC17961
- protocolNotes: Antimicrobial susceptibility testing: 90% growth inhibitory concentration (IC90) determination in Iso-Sensitest broth, OD600 growth
- Type: cell-based
- appliedConditions: Acinetobacter baumannii, ATCC17961, 16 h, strain ATCC 17961, OD600 growth over 16 h, read-out: A. baumannii ATCC 17961 IC90
Where a name gives a salt, the structure may show the parent alone.
# key: entry, value: IC90
quantityName: IC90 (nM)

1. C#CCn1cc(-c2cnc3c(Nc4ccc(C(=O)N5CCN(C(=O)[C@@H](C)N)CC5)c(CC)c4)nccn23)c(C(F)F)n1 ... 598
2. O=C(c1ccc(Nc2nccn3c(-c4c[nH]nc4C(F)(F)F)cnc23)cc1Cl)N1CCN(C(=O)[C@H]2CNC[C@H](O)C2)CC1 (racemic) ... 241
3. CCc1cc(Nc2nccn3c(-c4cn(CC(F)F)nc4C(F)(F)F)cnc23)ccc1C(=O)NCCNC(=O)N1CC[C@H](N)C1 [Example 489, formate] ... 184

Data origin: patent US20230203043A1
